- Tested System: CYP1A2 (Rattus norvegicus, UniProt P04799)
- Sequence (P04799 whole entry): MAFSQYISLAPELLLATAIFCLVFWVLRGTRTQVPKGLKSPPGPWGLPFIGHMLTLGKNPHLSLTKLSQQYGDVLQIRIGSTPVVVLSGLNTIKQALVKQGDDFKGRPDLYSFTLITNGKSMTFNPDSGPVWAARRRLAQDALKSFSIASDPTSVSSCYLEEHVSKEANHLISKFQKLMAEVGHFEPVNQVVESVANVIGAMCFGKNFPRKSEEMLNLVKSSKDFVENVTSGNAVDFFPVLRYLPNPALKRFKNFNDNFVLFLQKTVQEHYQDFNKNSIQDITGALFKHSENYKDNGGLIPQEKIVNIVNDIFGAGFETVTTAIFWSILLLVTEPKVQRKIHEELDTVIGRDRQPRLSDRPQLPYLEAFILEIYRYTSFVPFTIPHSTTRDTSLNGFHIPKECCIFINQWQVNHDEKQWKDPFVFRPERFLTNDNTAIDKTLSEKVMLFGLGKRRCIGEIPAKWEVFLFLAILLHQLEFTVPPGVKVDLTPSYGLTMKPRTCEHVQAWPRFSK
- Assay Procedure: In vitro cocktail CYP450 activity assay in rat liver microsomes, CYP1A2 (phenacetin probe)
- Stated Conditions: microsomes
Assignment: determine reported pIC50 for the given compounds.
Answers are plain numbers, as −log10 of the molar value.

Please state, for each entry, its recorded pIC50.
1. O=C(O)[C@H]1OC(Oc2cc3oc(-c4ccc(O)cc4)cc(=O)c3c(O)c2OC2O[C@H](CO)[C@@H](O)[C@H](O)[C@H]2O)[C@H](O)[C@@H](O)[C@@H]1O (stereo partly drawn)
2. O=c1c(OC2O[C@H](CO)[C@@H](O)[C@H](O)[C@H]2O)c(-c2ccc(O)cc2)oc2cc(O)c(O)c(O)c12 (stereo partly drawn) [A6, 6-hydoxykaempferol-3-O-glucoside]
3. O=c1c(O[C@@H]2O[C@H](CO)[C@@H](O)[C@H](O)[C@H]2O)c(-c2ccc(O)cc2)oc2cc(O)c(O[C@@H]3O[C@H](CO)[C@@H](O)[C@H](O)[C@H]3O)c(O)c12 [A13, 6-hydroxykaempferol-3,6-di-O-glucoside]

a:
[3.89, 4.28, 4.87]

###

Assign log10 of concentration at […] to each entry below.
- Assay Procedure: in vivo
- Parameters: species or system Sprague-Dawley (SD) rats
- Stated Conditions: Sprague-Dawley, plasma; 0.083 h after oral CNP, rat
Field: value | Transform: log10 | Quantity: concentration at […] | Unit: ng/mL

The examples below pair each entry with its known result.
>  <Compound>
CC(C)=CCC[C@](C)(O[C@@H]1O[C@H](CO)[C@@H](O)[C@H](O)[C@H]1O)[C@H]1CC[C@]2(C)[C@@H]1[C@H](O)C[C@@H]1[C@@]3(C)CC[C@H](O)C(C)(C)[C@@H]3[C@@H](O[C@@H]3O[C@H](CO)[C@@H](O)[C@H](O)[C@H]3O[C@@H]3O[C@@H](C)[C@H](O)[C@@H](O)[C@H]3O)C[C@]12C [GRe, ginsenoside Re]

>  <log10 of concentration at […]>
-0.62

$$$$
>  <Compound>
CC(C)=CCC[C@](C)(O[C@@H]1O[C@H](CO)[C@@H](O)[C@H](O)[C@H]1O)[C@H]1CC[C@]2(C)[C@@H]1[C@H](O)C[C@@H]1[C@@]3(C)CC[C@H](O)C(C)(C)[C@@H]3[C@@H](O[C@@H]3O[C@H](CO)[C@@H](O)[C@H](O)[C@H]3O[C@@H]3OC[C@@H](O)[C@H](O)[C@H]3O)C[C@]12C [NGR1, notoginsenoside R1]

>  <log10 of concentration at […]>
-0.59

$$$$
>  <Compound>
CC(C)=CCC[C@](C)(O[C@@H]1O[C@H](CO)[C@@H](O)[C@H](O)[C@H]1O)[C@H]1CC[C@]2(C)[C@@H]1[C@H](O)C[C@@H]1[C@@]3(C)CC[C@H](O[C@@H]4O[C@H](CO)[C@@H](O)[C@H](O)[C@H]4O[C@@H]4O[C@H](CO)[C@@H](O)[C@H](O)[C@H]4O)C(C)(C)[C@@H]3CC[C@]12C [GRd, ginsenoside Rd]

>  <log10 of concentration at […]>
0.82

$$$$
>  <Compound>
CC(C)=CCC[C@](C)(O[C@@H]1O[C@H](CO[C@@H]2O[C@H](CO)[C@@H](O)[C@H](O)[C@H]2O)[C@@H](O)[C@H](O)[C@H]1O)[C@H]1CC[C@]2(C)[C@@H]1[C@H](O)C[C@@H]1[C@@]3(C)CC[C@H](O[C@@H]4O[C@H](CO)[C@@H](O)[C@H](O)[C@H]4O[C@@H]4O[C@H](CO)[C@@H](O)[C@H](O)[C@H]4O)C(C)(C)[C@@H]3CC[C@]12C [GRb1, ginsenoside Rb1]

>  <log10 of concentration at […]>
1.27

$$$$

Now examine the next entry.
Value of measured log10 of concentration at […] for the entry CC(C)=CCC[C@](C)(O[C@@H]1O[C@H](CO)[C@@H](O)[C@H](O)[C@H]1O)[C@H]1CC[C@]2(C)[C@@H]1[C@H](O)C[C@@H]1[C@@]3(C)CC[C@H](O)C(C)(C)[C@@H]3[C@@H](O[C@@H]3O[C@H](CO)[C@@H](O)[C@H](O)[C@H]3O)C[C@]12C [GRg1, ginsenoside Rg1] : -0.42

###

- Assay Procedure: in vivo
- Design: species or system Sprague-Dawley (SD) rats
- Stated Conditions: Sprague-Dawley, rat, plasma, po, 60 mg/kg
Measured Endpoint: AUC(0-inf) (ng·h/mL)
Numbers only, in ng·h/mL.

Record excerpt, results attached:
>  <Molecule>
CC(C)=CCC[C@](C)(O[C@@H]1O[C@H](CO)[C@@H](O)[C@H](O)[C@H]1O)[C@H]1CC[C@]2(C)[C@@H]1[C@H](O)C[C@@H]1[C@@]3(C)CC[C@H](O[C@@H]4O[C@H](CO)[C@@H](O)[C@H](O)[C@H]4O[C@@H]4O[C@H](CO)[C@@H](O)[C@H](O)[C@H]4O)C(C)(C)[C@@H]3CC[C@]12C [GRd, ginsenoside Rd]

>  <Observed Result>
619

$$$$
>  <Molecule>
CC(C)=CCC[C@](C)(O[C@@H]1O[C@H](CO)[C@@H](O)[C@H](O)[C@H]1O)[C@H]1CC[C@]2(C)[C@@H]1[C@H](O)C[C@@H]1[C@@]3(C)CC[C@H](O)C(C)(C)[C@@H]3[C@@H](O[C@@H]3O[C@H](CO)[C@@H](O)[C@H](O)[C@H]3O)C[C@]12C [GRg1, ginsenoside Rg1]

>  <Observed Result>
16.7

$$$$
>  <Molecule>
CC(C)=CCC[C@](C)(O[C@@H]1O[C@H](CO)[C@@H](O)[C@H](O)[C@H]1O)[C@H]1CC[C@]2(C)[C@@H]1[C@H](O)C[C@@H]1[C@@]3(C)CC[C@H](O)C(C)(C)[C@@H]3[C@@H](O[C@@H]3O[C@H](CO)[C@@H](O)[C@H](O)[C@H]3O[C@@H]3OC[C@@H](O)[C@H](O)[C@H]3O)C[C@]12C [NGR1, notoginsenoside R1]

>  <Observed Result>
8.14

$$$$
>  <Molecule>
CC(C)=CCC[C@](C)(O[C@@H]1O[C@H](CO)[C@@H](O)[C@H](O)[C@H]1O)[C@H]1CC[C@]2(C)[C@@H]1[C@H](O)C[C@@H]1[C@@]3(C)CC[C@H](O)C(C)(C)[C@@H]3[C@@H](O[C@@H]3O[C@H](CO)[C@@H](O)[C@H](O)[C@H]3O[C@@H]3O[C@@H](C)[C@H](O)[C@@H](O)[C@H]3O)C[C@]12C [GRe, ginsenoside Re]

>  <Observed Result>
2.9

$$$$

Lab note: CC(C)=CCC[C@](C)(O[C@@H]1O[C@H](CO[C@@H]2O[C@H](CO)[C@@H](O)[C@H](O)[C@H]2O)[C@@H](O)[C@H](O)[C@H]1O)[C@H]1CC[C@]2(C)[C@@H]1[C@H](O)C[C@@H]1[C@@]3(C)CC[C@H](O[C@@H]4O[C@H](CO)[C@@H](O)[C@H](O)[C@H]4O[C@@H]4O[C@H](CO)[C@@H](O)[C@H](O)[C@H]4O)C(C)(C)[C@@H]3CC[C@]12C [GRb1, ginsenoside Rb1] gave AUC(0-inf) of 2810

###

- Test system: CYP2D6
- Assay Procedure: in vitro
- Stated Conditions: read-out: IC50 CYP2D6; single components; RLM 0.2 mg/mL, 15 min, triplicate, mean ± SD
Measured Endpoint: pIC50
Answers are plain numbers, as −log10 of the molar value.

The reported value for O=c1c(O[C@@H]2O[C@H](CO)[C@@H](O)[C@H](O)[C@H]2O)c(-c2ccc(O)cc2)oc2cc(O)cc(O)c12 [A7, kaempferol-3-O-glucoside] in terms of pIC50 is 4.51

###

Task for the reader: assign each of the following compounds its reported pIC50.
- System: CYP2C19
- Assay Procedure: in vitro
- Stated Conditions: microsomes
Answers are plain numbers, as −log10 of the molar value.

Required: pIC50, one value per compound below.
1. O=c1c(O[C@@H]2O[C@H](CO)[C@@H](O)[C@H](O)[C@H]2O)c(-c2ccc(O)cc2)oc2cc(O)c(O[C@@H]3O[C@H](CO)[C@@H](O)[C@H](O)[C@H]3O)c(O)c12 [A13, 6-hydroxykaempferol-3,6-di-O-glucoside]
2. O=c1c(OC2O[C@H](CO)[C@@H](O)[C@H](O)[C@H]2O)c(-c2ccc(O)cc2)oc2cc(O)c(O)c(O)c12 (stereo partly shown) [A6, 6-hydoxykaempferol-3-O-glucoside]
3. O=C(/C=C/c1ccc(O)cc1)C1=C(O)C2=C(O[C@H]([C@@H](O)[C@H](O)[C@H](O)CO)[C@H]2C2=C(O)/C(=C(O)/C=C/c3ccc(O)cc3)C(=O)C(O)([C@@H]3O[C@H](CO)[C@@H](O)[C@H](O)[C@H]3O)C2=O)C(O)([C@@H]2O[C@H](CO)[C@@H](O)[C@H](O)[C@H]2O)C1=O (stereo partly shown) [A8, anhydroxysafflor yellow B]

a:
4.31
4.27
3.95

All figures here come from paper PMC7076352.
